test system: DIPGX29 (H3.3 K27M diffuse intrinsic pontine glioma line); test: area under dose-response curve of % growth inhibition (log2 RLU vs DMSO / staurosporine), 1e-11 to 1e-4 M (% x log10 M); higher = more growth inhibition
// map area under dose-response curve to label using Low: < 20; Medium: ≥ 20 and < 50; High: ≥ 50

The following compounds have reported results that may help.
CC1CS(=O)(=O)CCN1/N=C/c1ccc([N+](=O)[O-])o1 (stereo unspecified) [NIFURTIMOX]    Low
COc1cc([C@@H]2c3cc4c(cc3[C@@H](O[C@@H]3O[C@@H]5CO[C@@H](C)O[C@H]5[C@H](O)[C@H]3O)[C@H]3COC(=O)[C@H]23)OCO4)cc(OC)c1O [ETOPOSIDE]    Medium
COc1cc2nc(N3CCN(C(=O)c4ccco4)CC3)nc(N)c2cc1OC [PRAZOSIN]    High

Prompt line: Assign a category based on measured area under dose-response curve for Cc1nc(=O)c2cc(CN(C)c3ccc(C(=O)N[C@@H](CCC(=O)O)C(=O)O)s3)ccc2[nH]1 [RALTITREXED] and give only the class name.
Response line: Medium

Prompt line: Assign a category based on measured area under dose-response curve for Cc1c(F)ccc(C(=O)Nc2cc([N+](=O)[O-])ccc2N2CCN(C)CC2)c1Cl [WDR5-C47] and give only the class name.
Response line: Low

Prompt line: Assign a category based on measured area under dose-response curve for CCCCCCCCOc1ccccc1C(=O)Nc1ccc(C(=O)OCC[N+](C)(CC)CC)cc1 [OTILONIUM] and give only the class name.
Response line: Low

Prompt line: Assign a category based on measured area under dose-response curve for O=C(O)c1ccc(O)c2ncccc12 [IOX1] and give only the class name.
Response line: Low

====

tested on: DIPGX37 (H3.3 K27M diffuse intrinsic pontine glioma line); assay: maximal growth inhibition (yFin) relative to DMSO / staurosporine; higher = more efficacious
Label rule, in plain words: maximal growth inhibition of 70% and up is 1 (yes), under 70% is 0 (no).

The following molecules have reported results that may help.
CCOC(=O)Nc1cc(-c2ccc(C)c(NS(C)(=O)=O)c2)nn2c(C)nnc12 [BROMOSPORINE]    0 (no)
COc1ccc(-c2nc(N3CCOCC3)c3sc(CN(C)c4ncc(C(=O)NO)cn4)cc3n2)cn1 [CUDC-907]    1 (yes)
O=C1COc2c(CCNCCN(C(=O)CCNCCc3ccc(Cl)c(Cl)c3)C3CCCCC3)ccc(O)c2N1 [AZ505]    0 (no)
CN(C)C/C=C/C(=O)Nc1cc2c(Nc3ccc(F)c(Cl)c3)ncnc2cc1O[C@H]1CCOC1 [AFATINIB]    1 (yes)
CC(C)c1nc(N(C)S(C)(=O)=O)nc(-c2ccc(F)cc2)c1/C=C/[C@@H](O)C[C@@H](O)CC(=O)O [ROSUVASTATIN]    0 (no)
Cc1c(N)nc([C@H](CC(N)=O)NC[C@H](N)C(N)=O)nc1C(=O)N[C@H](C(=O)N[C@H](C)[C@@H](O)[C@H](C)C(=O)N[C@H](C(=O)NCCc1nc(-c2nc(C(=O)NCCC[S+](C)C)cs2)cs1)[C@@H](C)O)[C@@H](OC1OC(CO)C(O)C(O)C1OC1OC(CO)C(O)C(OC(N)=O)C1O)c1cnc[nH]1 (stereo not given in full) [BLEOMYCIN]    0 (no)
[O-][n+]1ccccc1[S-].[O-][n+]1ccccc1[S-].[Zn+2] [PYRITHIONE ZINC]    1 (yes)
c1ccc(-c2ccc(C(c3ccccc3)n3ccnc3)cc2)cc1 (stereo not given) [BIFONAZOLE]    0 (no)

Okay, now this molecule:
Prompt line: Given the entry CCN(CC)CCOc1ccc(C(=C(Cl)c2ccccc2)c2ccccc2)cc1 [CLOMIPHENE] , answer whether its maximal growth inhibition meets or surpasses 70%.
Response line: 1 (yes)

====

system: HGGX2 (paediatric high-grade glioma line); assay: area under dose-response curve of % growth inhibition (log2 RLU vs DMSO / staurosporine), 1e-11 to 1e-4 M (% x log10 M); higher = more growth inhibition
Label rule, in plain words: area under dose-response curve of 200 and up is Fulfilled, under 200 is Not fulfilled.

Prompt line: Given the entry CS[C@H]1SC[C@H]2C(=O)N(C)[C@@H](C(C)C)C(=O)OC[C@@H](NC(=O)c3cnc4ccccc4n3)C(=O)N[C@@H](C)C(=O)N(C)[C@@H]1C(=O)N(C)[C@@H](C(C)C)C(=O)OC[C@@H](NC(=O)c1cnc3ccccc3n1)C(=O)N[C@@H](C)C(=O)N2C , answer whether its area under dose-response curve meets or surpasses 200.
Response line: Fulfilled

Prompt line: Given the entry CC(C)C[C@H](NC(=O)[C@H](CCc1ccccc1)NC(=O)CN1CCOCC1)C(=O)N[C@@H](Cc1ccccc1)C(=O)N[C@@H](CC(C)C)C(=O)[C@@]1(C)CO1 , answer whether its area under dose-response curve meets or surpasses 200.
Response line: Fulfilled

====

For each record, write down the corresponding maximal growth inhibition.
system: DIPGX7 (H3.3 K27M diffuse intrinsic pontine glioma line); test: maximal growth inhibition (yFin) relative to DMSO / staurosporine; higher = more efficacious
One number for each entry, in %.

Observe how each entry below is paired with its result.
CCN1CCN(Cc2ccc(Nc3ncc(F)c(-c4cc(F)c5nc(C)n(C(C)C)c5c4)n3)nc2)CC1    110
COc1cccc2c1C(=O)c1c(O)c3c(c(O)c1C2=O)C[C@@](O)(C(=O)CO)C[C@@H]3O[C@H]1C[C@H](N)[C@H](O)[C@H](C)O1    103
Cc1ccc(C(=O)Nc2ccc(CN3CCN(C)CC3)c(C(F)(F)F)c2)cc1C#Cc1cnc2cccnn12    101
CC(=O)c1ccc2c(c1)c1cc(C(C)=O)ccc1n2CCNC(C)C    99.2
COC(=O)[C@]12CCC(C)(C)C[C@H]1[C@H]1C(=O)C=C3[C@@]4(C)C=C(C#N)C(=O)C(C)(C)[C@@H]4CC[C@@]3(C)[C@]1(C)CC2    112

Field: maximal growth inhibition. Fill in for each record below.
1. CN(C)C/C=C/C(=O)Nc1cc2c(Nc3ccc(F)c(Cl)c3)ncnc2cc1O[C@H]1CCOC1
2. O=C(Nc1ccccc1-c1cn2c(CN3CCNCC3)csc2n1)c1cnc2ccccc2n1

Response line:
110
102

====

For each record, write down the corresponding area under dose-response curve.
tested on: DIPGX7; test: area under dose-response curve of % growth inhibition (log2 RLU vs DMSO / staurosporine), 1e-11 to 1e-4 M (% x log10 M); higher = more growth inhibition
Numbers only.

Observe how each entry below is paired with its result.
NC1CCC(Nc2cc(-c3cccc(NCc4cccc(F)c4)n3)c(Cl)cn2)CC1 (centres undefined)    249
Nc1ccccc1NC(=O)c1ccc(CNc2nccc(-c3cccnc3)n2)cc1    147
CCN(c1cc(-c2ccc(CN3CCOCC3)cc2)cc(C(=O)NCc2c(C)cc(C)[nH]c2=O)c1C)C1CCOCC1    5.15

We now examine a further compound.
Prompt line: I am curious: what area under dose-response curve value has been reported for COC(=O)[C@]12CCC(C)(C)C[C@H]1[C@H]1C(=O)C=C3[C@@]4(C)C=C(C#N)C(=O)C(C)(C)[C@@H]4CC[C@@]3(C)[C@]1(C)CC2 ?
Response line: 221

====

For each record, write down the corresponding EC50 (log10 M).
test system: SUDIPGXXI (diffuse intrinsic pontine glioma line); assay: EC50 (inflection of fitted growth-inhibition curve) (log10 M)
Give bare numbers.

CC(C)c1c2cc(-c3ccnc(NC4CCC(NC5CCOCC5)CC4)n3)ccc2nn1C (centres undefined)    -7.19
CCOC(=O)c1ccc(C#Cc2ccc3c(c2)C(C)(C)CCS3)nc1 [TAZAROTENE]    -5.98
Fc1ccc(-c2c3cccc(C(F)(F)F)c3nn2Cc2ccc(F)cc2Cl)cc1    -5.13

We now examine a further compound.
Prompt line: I am curious: what EC50 (log10 M) value has been reported for CC(=O)c1cc([N+](=O)[O-])c(Sc2ccc(F)cc2F)s1 ?
Response line: -4.78

====

For each record, write down the corresponding EC50 (log10 M).
test system: SUDIPGXIII (diffuse intrinsic pontine glioma line); experiment: EC50 (inflection of fitted growth-inhibition curve) (log10 M)

Observe how each entry below is paired with its result.
CC(C)C[C@H](NC(=O)[C@H](CCc1ccccc1)NC(=O)CN1CCOCC1)C(=O)N[C@@H](Cc1ccccc1)C(=O)N[C@@H](CC(C)C)C(=O)[C@@]1(C)CO1    -5.36
CC(C)C[C@H](NC(=O)CNC(=O)c1cc(Cl)ccc1Cl)B(O)O    -7.52
CC(=O)OC[C@H]1O[C@@H]([S-])[C@H](OC(C)=O)[C@@H](OC(C)=O)[C@@H]1OC(C)=O.CCP(CC)CC.[Au+]    -5.39

Field: EC50 (log10 M). Fill in for each record below.
1. OC1(c2ccc(Cl)c(C(F)(F)F)c2)CCN(CCCC(c2ccc(F)cc2)c2ccc(F)cc2)CC1
2. C[C@@]12OC(=O)[C@]1([C@@H](O)[C@@H]1C=CCCC1)NC(=O)[C@@H]2CCCl
3. COc1ccc(-c2nc(N3CCOCC3)c3sc(CN(C)c4ncc(C(=O)NO)cn4)cc3n2)cn1
4. COc1cc(F)ccc1-c1ncnc(Nc2cccc(CS(C)(=N)=O)c2)n1 (stereo not given)
5. CN(C)C/C=C/C(=O)Nc1ccc(C(=O)Nc2cccc(Nc3ncc(Cl)c(-c4c[nH]c5ccccc45)n3)c2)cc1

Response line:
[-5.21, -6.99, -5.71, -4.98, -7.62]

Field: EC50 (log10 M). Fill in for each record below.
1. Cc1c(C2CCN(CCc3ccccc3)CC2)noc1-c1ccc(Cl)cc1
2. COc1cccc2c1C(=O)c1c(O)c3c(c(O)c1C2=O)C[C@@](O)(C(=O)CO)C[C@@H]3O[C@H]1C[C@H](N)[C@H](O)[C@H](C)O1
3. COC(=O)[C@]12CCC(C)(C)C[C@H]1[C@H]1C(=O)C=C3[C@@]4(C)C=C(C#N)C(=O)C(C)(C)[C@@H]4CC[C@@]3(C)[C@]1(C)CC2
4. CCN1CCN(Cc2ccc(Nc3ncc(F)c(-c4cc(F)c5nc(C)n(C(C)C)c5c4)n3)nc2)CC1
5. O=C(c1ccccc1)c1ccc2nc(NC(=O)c3csc(C4CCN(c5ncnc6ccsc56)CC4)n3)[nH]c2c1
6. O=C(Nc1ccccc1-c1cn2c(CN3CCNCC3)csc2n1)c1cnc2ccccc2n1

Response line:
-4.71
-5.71
-5.62
-6.07
-5.72
-4.96

Prompt line: I am curious: what EC50 (log10 M) value has been reported for c1ccc2c(-c3cnn4cc(-c5ccc(N6CCNCC6)cc5)cnc34)ccnc2c1 ?
Response line: -5.56
